Catalogue of growth inhibition readings, one per entry.
System: SUDIPGVI (diffuse intrinsic pontine glioma line)
Experiment: growth inhibition (% activity, log2 RLU normalised to DMSO / staurosporine); higher = more growth inhibition
Assay context: 33 µM
Numeric answer only, unit % assumed.

Below: 3 compounds and their reported growth inhibition.
Entry CC[C@]1(O)C[C@@H]2CN(CCc3c([nH]c4ccccc34)[C@@](C(=O)OC)(c3cc4c(cc3OC)N(C)[C@H]3[C@@](O)(C(=O)OC)[C@H](OC(C)=O)[C@]5(CC)C=CCN6CC[C@]43[C@@H]65)C2)C1 , SUDIPGVI data, growth inhibition value: 16.1

Entry O=c1ccc2ccccc2o1 , SUDIPGVI data, growth inhibition value: 1.45

Entry Nc1nc(Cl)nc2c1ncn2[C@@H]1O[C@H](CO)[C@@H](O)[C@@H]1F , SUDIPGVI data, growth inhibition value: 2.3

Continuing:
Entry CCC(C)C1OC2(CCC1C)CC1CC(CC=C(C)C(OC3CC(OC)C(OC4CC(OC)C(O)C(C)O4)C(C)O3)C(C)C=CC=C3COC4C(O)C(C)=CC(C(=O)O1)C34O)O2 (stereo not given) , SUDIPGVI data, growth inhibition value: 3.51

Entry CN1CCCCC1CCN1c2ccccc2Sc2ccc([S+](C)[O-])cc21 (stereo not given) , SUDIPGVI data, growth inhibition value: -0.796

Entry CCCc1nc(C)c2c(=O)nc(-c3cc(S(=O)(=O)N4CCN(CC)CC4)ccc3OCC)[nH]n12 , SUDIPGVI data, growth inhibition value: 0.112

Entry N[C@H](C(=O)O)[C@H](O)c1ccc(O)c(O)c1 , SUDIPGVI data, growth inhibition value: -1.43

Entry CC(C)c1c(C(=O)Nc2ccccc2)c(-c2ccccc2)c(-c2ccc(F)cc2)n1CC[C@@H](O)C[C@@H](O)CC(=O)O , SUDIPGVI data, growth inhibition value: -0.629

====

Catalogue of growth inhibition readings, one per entry.
Tested on: HNSC
Experiment: growth inhibition (% activity, log2 RLU normalised to DMSO / staurosporine); higher = more growth inhibition
Assay context: 33 µM
Numeric answer only, unit % assumed.

Below: 2 compounds and their reported growth inhibition.
For reference, reported growth inhibition for [I-].[K+] stands at 20.4

For reference, reported growth inhibition for CN1C(C(=O)Nc2ccccn2)=C(O)c2ccccc2S1(=O)=O stands at 2.62

With those in mind, consider the next compound.
For reference, reported growth inhibition for CCOC(=O)[C@H](CCc1ccccc1)N[C@@H](C)C(=O)N1Cc2ccccc2C[C@H]1C(=O)O stands at 5.54

====

Tested on: DIPGX7 (H3.3 K27M diffuse intrinsic pontine glioma line)
Experiment: growth inhibition (% activity, log2 RLU normalised to DMSO / staurosporine); higher = more growth inhibition
Assay context: 33 µM
Catalogue of growth inhibition readings, one per entry.
Numeric answer only, unit % assumed.

Below: 2 compounds and their reported growth inhibition.
Entry N#C[C@@H]1C[C@@H]2C[C@@H]2N1C(=O)[C@@H](N)C12CC3CC(CC(O)(C3)C1)C2 , DIPGX7 data, growth inhibition value: 1.21

Entry CN(C)CCCN1c2ccccc2Sc2ccc(C(F)(F)F)cc21 , DIPGX7 data, growth inhibition value: 0.326

Continuing:
Entry COc1cc2ncnc(Nc3ccc(F)c(Cl)c3)c2cc1OCCCN1CCOCC1 , DIPGX7 data, growth inhibition value: 1.03

Entry CCCCCCCN(CC)CCCC(O)c1ccc(NS(C)(=O)=O)cc1 (stereo not given) , DIPGX7 data, growth inhibition value: 2.25

Entry CCN1CCCC1CNC(=O)c1cc(S(=O)(=O)CC)c(N)cc1OC (stereo not given) , DIPGX7 data, growth inhibition value: 2.4

Entry CCN1CCN(C(=O)NC(C(=O)NC2C(=O)N3C(C(=O)O)=C(CSc4nnnn4C)CSC23)c2ccc(O)cc2)C(=O)C1=O (stereo not given) , DIPGX7 data, growth inhibition value: -3.04

Entry CNC[C@H](O)[C@@H](O)[C@H](O)[C@H](O)CO , DIPGX7 data, growth inhibition value: 2.92

====

Tested on: HNSC
Experiment: growth inhibition (% activity, log2 RLU normalised to DMSO / staurosporine); higher = more growth inhibition
Assay context: 33 µM
Endpoint name: growth inhibition (%)
Numeric answer only, unit % assumed.

Below: 3 molecules and their reported growth inhibition.
Entry O=C(Nc1c(Cl)cncc1Cl)c1ccc(OC(F)F)c(OCC2CC2)c1 , HNSC data, growth inhibition value: 2.92

Entry CCOc1nc2cccc(C(=O)O)c2n1Cc1ccc(-c2ccccc2-c2noc(=O)[nH]2)cc1 , HNSC data, growth inhibition value: 0.888

Entry Oc1c(Cl)cc(Cl)c2cccnc12 , HNSC data, growth inhibition value: 44.3

Continuing:
Entry Cc1nnc(C(C)C)n1C1C[C@H]2CC[C@@H](C1)N2CC[C@H](NC(=O)C1CCC(F)(F)CC1)c1ccccc1 (stereo in doubt) , HNSC data, growth inhibition value: 45.9

====

Tested on: SUDIPGVI
Experiment: growth inhibition (% activity, log2 RLU normalised to DMSO / staurosporine); higher = more growth inhibition
Assay context: 33 µM
Endpoint name: growth inhibition (%)
Numeric answer only, unit % assumed.

Below: 5 compounds and their reported growth inhibition.
For reference, reported growth inhibition for Nc1nc2[nH]cc(CCc3ccc(C(=O)N[C@@H](CCC(=O)O)C(=O)O)cc3)c2c(=O)[nH]1 stands at -1.22

For reference, reported growth inhibition for COc1nc(C)nc(Cl)c1NC1=NCCN1 stands at -2.98

For reference, reported growth inhibition for O=C([O-])CC(O)(CC(=O)[O-])C(=O)[O-].O=C([O-])CC(O)(CC(=O)[O-])C(=O)[O-].[Bi+3].[K+].[K+].[K+].[K+].[K+] stands at -0.266

For reference, reported growth inhibition for COc1ccc2cc(CCC(C)=O)ccc2c1 stands at -8.13

For reference, reported growth inhibition for C[C@]12CC[C@@H]3c4ccc(O)cc4C[C@@H](CCCCCCCCC[S+]([O-])CCCC(F)(F)C(F)(F)F)[C@H]3[C@@H]1CC[C@@H]2O (stereo partly drawn) stands at -0.348

Continuing:
For reference, reported growth inhibition for N=S(=O)(O)Cc1noc2ccccc12 stands at -4.93

For reference, reported growth inhibition for COc1cc(/C=C/C(=O)CC(=O)/C=C/c2ccc(O)c(OC)c2)ccc1O stands at 0.323

For reference, reported growth inhibition for CNS(=O)(=O)CCc1ccc2[nH]cc(C3CCN(C)CC3)c2c1 stands at 2.79

For reference, reported growth inhibition for CNC1CCCN(c2c(F)cc3c(=O)c(C(=O)O)cn(C4CC4)c3c2OC)C1 (stereo not drawn) stands at -0.677

For reference, reported growth inhibition for NS(=O)(=O)c1cc2c(cc1C(F)(F)F)NC(Cc1ccccc1)NS2(=O)=O (stereo not drawn) stands at 0.355

For reference, reported growth inhibition for Cc1ccccc1N1C(=O)c2cc(S(N)(=O)=O)c(Cl)cc2NC1C (stereo not drawn) stands at -1.57

For reference, reported growth inhibition for CC1(C)Cc2c(-c3ccccc3)c(-c3ccc(Cl)cc3)c(CC(=O)O)n2C1 stands at 1.99

For reference, reported growth inhibition for CC(C)(C)NC(=O)[C@H]1CC[C@H]2[C@@H]3CC[C@H]4NC(=O)C=C[C@]4(C)[C@H]3CC[C@]12C stands at 1.81

====

Catalogue of growth inhibition readings, one per entry.
Test system: DIPGX37 (H3.3 K27M diffuse intrinsic pontine glioma line)
Experiment: growth inhibition (% activity, log2 RLU normalised to DMSO / staurosporine); higher = more growth inhibition
Assay context: 33 µM
Numeric answer only, unit % assumed.

Below: 3 compounds and their reported growth inhibition.
For reference, reported growth inhibition for CCCSc1ccc2[nH]c(NC(=O)OC)nc2c1 stands at 7.1

For reference, reported growth inhibition for CCCc1nn(C)c2c(=O)[nH]c(-c3cc(S(=O)(=O)N4CCN(C)CC4)ccc3OCC)nc12 stands at -4.11

For reference, reported growth inhibition for CC(C)OC(=O)C(C)(C)Oc1ccc(C(=O)c2ccc(Cl)cc2)cc1 stands at 2.12

With those in mind, consider the next compound.
For reference, reported growth inhibition for CN(Cc1ccc(C(C)(C)C)cc1)Cc1cccc2ccccc12 stands at 0.769

====

Test system: HGGX6 (H3.3 G34R paediatric high-grade glioma line)
Experiment: growth inhibition (% activity, log2 RLU normalised to DMSO / staurosporine); higher = more growth inhibition
Assay context: 33 µM
Catalogue of growth inhibition readings, one per entry.

For reference, reported growth inhibition for CC(=O)OCC(=O)[C@@]1(O)CC[C@H]2[C@@H]3CCC4=CC(=O)C=C[C@]4(C)[C@H]3[C@@H](O)C[C@@]21C stands at 2.03%

For reference, reported growth inhibition for CC#CCn1c(N2CCC[C@@H](N)C2)nc2c1c(=O)n(Cc1nc(C)c3ccccc3n1)c(=O)n2C stands at -0.836%

For reference, reported growth inhibition for C[C@@](Cc1ccc(O)c(O)c1)(NN)C(=O)O stands at 0.427%

For reference, reported growth inhibition for COc1cc(C)c(/C=C/C(C)=C/C=C/C(C)=C/C(=O)O)c(C)c1C stands at 6.28%

For reference, reported growth inhibition for CCOC(=O)C1=C(C)NC(C)=C(C(=O)OCC)C1c1ccccc1/C=C/C(=O)OC(C)(C)C stands at 2.24%

With those in mind, consider the next compound.
For reference, reported growth inhibition for CC/C(=C(/CC)c1ccc(O)cc1)c1ccc(O)cc1 stands at -0.016%

Attribution: the supplement of paper PMC8253809
